- System: SK-MEL-28 melanoma
- assay-explanation: NCI tumour cell line growth inhibition, 48 h
property-measured: GI50

{"columns": ["compound", "GI50"],
 "data": [
  ["NC(=O)c1sc(-n2cnc3cc(C(F)(F)F)ccc32)cc1OCc1ccccc1Br", "> 23.4 µM"]
]}

Give GI50 for each of the items listed below.
1. CN1CCN(c2nc(-c3csc(-c4cccs4)n3)cc3ccccc23)CC1
2. COc1cnc2c(c1)C(=O)c1c-2n(CCCN2CCC(O)CC2)c(=O)c2cc(Cl)ccc12
3. COc1ccc(CCN2CCC(CN(C)Cc3cnn(-c4ccccc4)c3)CC2)cc1
4. NC(CSSCC(N)C(=O)O)C(=O)O (stereo unspecified)
5. O=[N+]([O-])c1cc([N+](=O)[O-])c(Cl)cc1Cl
6. O=C1CC/C(=C/COc2cc(=O)oc3ccccc23)O1
7. CC(=O)/C=C/c1ccc(OCc2ccc(Cl)cc2)cc1

## Result
1. 1.77 µM
2. 16.7 µM
3. 2.52 µM
4. > 100 µM
5. 1.74 µM
6. 14 µM
7. 400 µM
